Target System: DDE
Method Notes: competition fluorescence polarization: unlabeled peptide against Seq000-CF5 tracer on DDE; n = 2
Bridge positions count the residues as written; N and C are the ends. Square brackets hold non-standard residues; d marks the D form. * marks the point of attachment. αGalNAc = CC(=O)N[C@@H]1[C@@H](O)[C@@H](O)[C@@H](CO)O[C@@H]1*; Phe(3,4-F2) = N[C@@H](Cc1ccc(F)c(F)c1)C(=O)O; Thf2ca = tetrahydrofuran-2-carboxylic acid; Phe(4-F) = N[C@@H](Cc1ccc(F)cc1)C(=O)O; Cha = N[C@@H](CC1CCCCC1)C(=O)O
Rel IC50 (ratio to the reference peptide) reference
Assay Endpoint: Rel IC50 (ratio to the reference peptide)

>>> obs_value("Ac-WQPCPWESWT[Cha]CWDPGGGK-NH2 (disulfide 4-12) [Seq018-P]")
0.494
>>> obs_value("Ac-WQPCPWESWT[Phe(3,4-F2)]CWDPGGGK-NH2 (disulfide 4-12) [Seq020-P]")
0.428
>>> obs_value("Ac-GWQPCPWESWTFCWDPGGGK-NH2 (disulfide 5-13) [Seq016-P]")
1.04
>>> obs_value("H-GWQPCPWESWTFCWDPGGGK-NH2 (disulfide 5-13) [Seq021-P]")
0.622
>>> obs_value("Ac-S(αGalNAc)WQPCPWESWTFCWDPGGGK-NH2 (disulfide 5-13) [Seq027-P]")
0.559
>>> obs_value("Ac-WQPCPWESWT[Phe(4-F)]CWDPGGGK-NH2 (disulfide 4-12) [Seq019-P]")
0.601
>>> obs_value("Thf2ca-WQPCPWESWTFCWDPGGGK-NH2 (disulfide 4-12) [Seq028-P]")
0.616
